# Tested on: OVCAR-3 ovarian
# procedure details: NCI tumour cell line growth inhibition, 48 h
Where a SMILES comes first, the peptide text is derived from it. The star is where a group is joined. Fmoc = O=C(OCC1c2ccccc2-c2ccccc21)*; Boc = CC(C)(C)OC(=O)*
measure: TGI

Below, each entry is followed by its recorded TGI result.
| compound | measurement target | TGI |
| --- | --- | --- |
| O=S1(=O)C=C(c2ccccc2)C(c2ccccc2)=C1 | OVCAR-3 ovarian | 2.9 µM |
| O=C(Nc1ccc(N2CCNCC2)cn1)c1[nH]ncc1Nc1ncnc2sc3c(c12)CCC3 | OVCAR-3 ovarian | 3.62 µM |
| COc1cc2c(cc1OC)C(=O)N1CCCC1C(=O)S2 (stereo unspecified) | OVCAR-3 ovarian | > 100 µM |

Prompt: Read the entry Cn1c(=O)c2[nH]cnc2n(C)c1=O.[CH2-]C(Cc1cccc2cc(C(=O)O)c(=O)oc12)OC.[Hg+2].[OH-] (stereo unspecified) and write its reported TGI.
Completion: 32.8 µM

Prompt: For the compound OCC(O)C(OC1OC(CO)C(O)C(O)C1O)c1nn(-c2ccc(Cl)cc2)c2nc3cc(Cl)ccc3nc12 (stereo unspecified) , give its measured TGI value.
Completion: > 100 µM

Prompt: For Cn1c2c(c3c(=O)[nH]ncc31)CCCc1ccccc1-2 , write its TGI.
Completion: 86.4 µM

Prompt: Tell me its TGI given NCCSc1nc(N)c2ncn(C3OC(CO)C(O)C3O)c2n1 (stereo unspecified) as the entry.
Completion: > 100 µM

Prompt: Output TGI of O=c1c2cc([N+](=O)[O-])cnc2sn1-c1ccc(Br)cc1
Completion: > 100 µM

Prompt: In one line, give reported TGI of the entry CCOC(=O)/C=C1\C[C@H](NC(=O)OCc2ccccc2)C(=O)N1CC(=O)OCC .
Completion: > 100 µM

Prompt: Tell me TGI reported for O=C(O)CCCN=C(C(=NCCCC(=O)O)c1ccccc1)c1ccccc1
Completion: > 100 µM

Prompt: Using known records, supply TGI for NC(N)=N/N=C/c1ccc(Br)cc1
Completion: 9.23 µM

Prompt: Return value of TGI for input NS(=O)(=O)c1ccc(N=Nc2c(=O)[nH]c3ccc4[nH]cccc4c23)cc1 , no commentary.
Completion: 1.98 µM

Prompt: Look up TGI of CCC12C=CCN3CCC4(C(=C(C(=O)OC)C1)Nc1ccccc14)[C@H]32 (stereo partly specified) and report it.
Completion: > 100 µM

Prompt: Output measured TGI for this item: COc1ccc(CNC(=O)c2c(C)n([O-])c3cc(F)c(F)cc3[n+]2=O)cc1
Completion: 21.6 µM

Prompt: Output TGI of Cc1ccc(NCc2nnc3c(-c4ccccc4)nc4ccccc4n23)cc1
Completion: > 100 µM

Prompt: Please give measured TGI of the following entry: CN(C)c1ccc(/C=c2\sc3nnc(Cc4ccccc4)n3c2=O)cc1
Completion: > 100 µM

Prompt: Please report TGI for the following compound: CC(=O)CC(=O)ON(C)C(=O)Cc1ccccc1
Completion: > 100 µM

Prompt: Report measured TGI; entry is Cc1cn(C2CC(O)C(Cn3nncc3Cn3ccc(=O)[nH]c3=O)O2)c(=O)[nH]c1=O (stereo unspecified)
Completion: > 100 µM

Prompt: Identify measured TGI associated with Cc1ccc(C(=O)C(C)N)cc1C (stereo unspecified)
Completion: > 100 µM

Prompt: Indicate its recorded TGI; the compound in question is COC(=O)C(=O)C(C(=O)C(=O)Nc1nc(=S)[nH][nH]1)c1nc2ccc([N+](=O)[O-])cc2[nH]c1=O (stereo unspecified)
Completion: > 100 µM

Prompt: Return TGI (reported value) for this compound: CCCCCCCCC(=O)NCCN(CCN)C(=O)CCCCCCCC
Completion: 30.9 µM

Prompt: Consider the compound CC(C)(C)OC(=O)NCCCCC(NC(=O)C(Cc1c[nH]c2ccccc12)NC(=O)OCC1c2ccccc2-c2ccccc21)C(=O)O (stereo unspecified) (Fmoc-Trp-Lys(Boc)-OH; configuration not given here) and give its recorded TGI.
Completion: 40.4 µM

Prompt: Give a short answer stating reported TGI for COC(=O)/C=C/N1CC1 .
Completion: > 10 µM

Prompt: Let me know recorded TGI for N=c1oc2ccc(Cl)cc2cc1C(=O)NC1CCCCC1 , thanks.
Completion: > 100 µM

Prompt: State its TGI: Cc1cccc2c(=O)c3c(O)cc4c(c3n(C)c12)C=CC(C)(C)O4
Completion: > 100 µM

----------
# reported TGI; entries follow
# System: SK-MEL-5 melanoma
# procedure details: NCI tumour cell line growth inhibition, 48 h

| compound | TGI |
| --- | --- |
| O=C1CC2OCC=C3CN4CCC56c7ccccc7N1C5C2C3CC46 (configuration not stated) (tested in a mixture with another compound) | > 50 µg/mL |
| CC(C)=C=CC(C)(C)NS(=O)(=O)NC(C)(C)C=C=C(C)C | > 100 µM |
| NNC(=O)N/N=C1/C(=O)N(c2ccc(Cl)c(Cl)c2)C(=O)C(=O)C1c1nc2ccccc2o1 (configuration not stated) | > 100 µM |
| O=c1[nH]c(=S)c2[nH]c(=O)n(-c3ccccc3)c2[nH]1 | > 100 µM |
| N=c1oc2ccc(Cl)cc2cc1C(=O)NC1CCCCC1 | > 100 µM |

Prompt: Look up and report measured TGI for this entry: N#CC1C(=O)NC(=O)C(C#N)C1c1ccc(Cl)c(Cl)c1 (configuration not stated)
Completion: 48.3 µM

Prompt: Please list TGI recorded for the compound O=c1c2cc([N+](=O)[O-])cnc2sn1-c1ccc(Br)cc1
Completion: > 100 µM

Prompt: Input Cc1cccc(/C=C2\CCCCCC2=O)c1 , output reported TGI.
Completion: > 100 µM

----------
# Test system: M14 melanoma
# procedure details: NCI tumour cell line growth inhibition, 48 h
Catalogue of TGI readings, one per entry.

Use the examples below as a reference point.
| compound | TGI |
| --- | --- |
| CCOC(=O)C1C(=O)c2cccc(OC)c2C2COC(=O)N12 (stereo not drawn) | > 100 µM |
| O=S1Cc2ccccc2CSS1 (stereo not drawn) | 27 µM |

Prompt: Look up TGI of COC(=O)C(C(=O)C(=O)Nc1ccc(N)cc1[N+](=O)[O-])c1nc2ccc(Cl)cc2[nH]c1=O (stereo not drawn) and report it.
Completion: > 100 µM

Prompt: Tell me TGI reported for COc1cc(C2S/C(=C/c3ccccc3)C(=O)N2c2ccccn2)cc(OC)c1OC (stereo not drawn)
Completion: 31.8 µM

Prompt: Retrieve TGI measured for COc1cc(OC)c2c(c1Cl)O[C@]1(C2=O)C(OCc2ccccc2)=CC(=O)C[C@H]1C and print it.
Completion: 40.5 µM

----------
# Test system: SNB-19 CNS
# procedure details: NCI tumour cell line growth inhibition, 48 h
measure: TGI

Please review the following examples before continuing.
| compound | measurement target | TGI |
| --- | --- | --- |
| NC(=O)N/N=C/c1ccccc1O | SNB-19 CNS | > 100 µM |
| CC(C)Cn1cnc2c(SCc3ccccn3)nc(N)nc21 | SNB-19 CNS | > 100 µM |
| NC(C(=O)O)c1ccc(C(=O)O)cc1 (stereo not drawn) | SNB-19 CNS | > 100 µM |
| COc1ccc(-c2cc(-c3ccccc3)nc(N)n2)c(O)c1 | SNB-19 CNS | > 100 µM |
| N#CC(CC(=O)O)=C(c1ccccc1)c1ccccc1 | SNB-19 CNS | > 100 µM |
| NCCNc1ncnc2ccc(Cl)cc12 | SNB-19 CNS | > 100 µM |
| O=c1[nH]c(=S)c2[nH]c(=O)n(-c3ccccc3)c2[nH]1 | SNB-19 CNS | > 100 µM |
| O=C1OC(=O)C2C1C1C(c3ccccc3)=C(c3ccccc3)C2(O)C2C(=O)OC(=O)C12 (stereo not drawn) | SNB-19 CNS | > 100 µM |

Prompt: Give the value of TGI reported for the following: CCCCn1c2c(n(CCCC)c1=[Se])-c1c(n(CCCC)c(=[Se])n1CCCC)S[Se][Se]S2
Completion: > 65.2 µM

Prompt: Give the value of TGI reported for the following: C/C(CC(O)(C(F)(F)F)C(F)(F)F)=N/Nc1ccc([N+](=O)[O-])cc1[N+](=O)[O-]
Completion: > 10 µM

Prompt: Please give the documented TGI of CC(C)C(=O)CP(=O)(O)O
Completion: > 100 µM

Prompt: Give me measured TGI, please, for this compound: O=c1ccc2nc3ccc(O)cc3oc-2c1
Completion: > 100 µM

Prompt: Item COc1ccc(/C=C2\CC3C4CC=C5C[C@@H](O)CC[C@]5(C)C4CC[C@]3(C)C2=O)cc1OC (stereo partly drawn) : provide TGI
Completion: > 100 µM

Prompt: Please give the documented TGI of CC1(C)N=C(N)N=C(N)N1c1ccc(CCC(=O)Nc2cccc(S(=O)(=O)F)c2)cc1
Completion: > 100 µM

Prompt: Output measured TGI for this item: CC1CC(c2ccc([N+](=O)[O-])cc2)=Nc2ccccc2S1=O (stereo not drawn)
Completion: 38.5 µM

Prompt: Identify measured TGI corresponding to COc1cc2c3c(n(CCCN4CCN(CCO)CC4)c(=O)c2cc1OC)-c1cc2c(cc1C3=O)OCO2
Completion: > 65.7 µM

Prompt: Tell us which TGI value is on record for COc1c(OC2OC(CO)C(O)C(O)C2O)cc2c(c1OC)-c1ccc(OC)c(=O)cc1[C@@H](NC(C)=O)CC2 (stereo partly drawn)
Completion: > 100 µM

Prompt: Find the measured TGI of Cn1c(=O)c2[nH]cnc2n(C)c1=O.[CH2-]C(Cc1cccc2cc(C(=O)O)c(=O)oc12)OC.[Hg+2].[OH-] (stereo not drawn) and report it.
Completion: 31.6 µM
